Listing of recorded inhibition at 3 µM by entry.
molecular target: hERG (Homo sapiens, UniProt Q12809); experiment: Inhibition of hERG expressed in CHO cells 3 uM at by Q patch-clamp method relative to control; type: toxicity, cell-based; conditions: CHO cells that express hERG
Sequence (Q12809 whole entry): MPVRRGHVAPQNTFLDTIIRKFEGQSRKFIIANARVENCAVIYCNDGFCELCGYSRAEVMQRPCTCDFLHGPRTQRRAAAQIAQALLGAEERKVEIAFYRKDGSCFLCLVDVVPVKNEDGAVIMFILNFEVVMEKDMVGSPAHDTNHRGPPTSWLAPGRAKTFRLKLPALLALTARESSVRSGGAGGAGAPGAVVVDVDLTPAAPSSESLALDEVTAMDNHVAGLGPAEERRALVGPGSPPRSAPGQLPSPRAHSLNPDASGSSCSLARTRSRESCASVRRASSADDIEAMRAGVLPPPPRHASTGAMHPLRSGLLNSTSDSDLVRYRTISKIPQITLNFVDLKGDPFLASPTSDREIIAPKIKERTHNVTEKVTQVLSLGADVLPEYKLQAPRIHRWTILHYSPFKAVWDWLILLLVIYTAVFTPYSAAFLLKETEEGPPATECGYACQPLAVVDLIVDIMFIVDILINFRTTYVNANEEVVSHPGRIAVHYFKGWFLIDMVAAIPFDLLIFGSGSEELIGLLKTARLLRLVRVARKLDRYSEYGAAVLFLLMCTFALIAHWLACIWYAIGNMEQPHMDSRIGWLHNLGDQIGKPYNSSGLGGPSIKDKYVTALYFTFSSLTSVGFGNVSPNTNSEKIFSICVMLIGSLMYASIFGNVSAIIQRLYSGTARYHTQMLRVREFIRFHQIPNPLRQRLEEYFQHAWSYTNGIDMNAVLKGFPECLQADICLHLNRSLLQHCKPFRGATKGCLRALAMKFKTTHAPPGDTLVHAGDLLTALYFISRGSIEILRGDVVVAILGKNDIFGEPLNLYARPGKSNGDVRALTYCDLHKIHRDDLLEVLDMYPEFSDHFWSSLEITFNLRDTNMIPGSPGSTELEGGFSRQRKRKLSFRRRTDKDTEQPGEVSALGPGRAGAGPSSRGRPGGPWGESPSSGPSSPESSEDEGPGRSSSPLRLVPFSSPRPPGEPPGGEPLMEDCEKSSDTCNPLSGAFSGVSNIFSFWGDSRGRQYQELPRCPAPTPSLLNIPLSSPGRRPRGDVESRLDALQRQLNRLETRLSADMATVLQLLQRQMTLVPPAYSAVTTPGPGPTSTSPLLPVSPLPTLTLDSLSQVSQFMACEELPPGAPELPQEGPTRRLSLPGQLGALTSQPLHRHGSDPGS
Record the value in %, omitting the unit from your answer.

CCOc1ncc(-c2nc(C(F)(F)F)sc2N2CCN(C(=O)Cn3nc(C)nc3C)[C@H](C)C2)cn1 ... 4

Q: Answer with reported inhibition at 3 µM of CCOc1ncc(-c2nc(C(F)(F)F)sc2N2CCN(C(=O)Cn3cnc(C(F)(F)F)n3)[C@H](C)C2)cn1
A: 31
